target: EGFR 525-Fc (human) (UniProt P00533); assay: direct binding ELISA, single point; clone captured by anti-His, 50 nM receptor-Fc, anti-human Fc HRP
Field: class. Source value: A450. Ranges: bucket A = under 0.9 A450, bucket B = from 0.9 A450 up to 2 A450, bucket C = 2 A450 and over

679C10 (designed binder, 10Fn3-based clone expressed in E. coli as His6 tagged protein; not shown: His6 tag) VSDVPRDLEVVAATPTSLLISWSRYAPGGRYYRITYGETGGNSPVQEFTVPDVPWTATISGLKPGVDYTITVYAVTLSNYEYLARNPISINYRT: bucket A

Field: class (A450) — entry: 867B10 (designed binder, 10Fn3-based clone expressed in E. coli as His6 tagged protein; not shown: His6 tag) VSDVPRDLEVVAATPTSLLISWKSVYVDYRYYRITYGETGGNSPVQEFTVPHSNLTATISGLKPGVDYTITVYAVTVYESYVANDSPISINYRT
bucket C

Please classify: 867F10 (designed binder, 10Fn3-based clone expressed in E. coli as His6 tagged protein; not shown: His6 tag) VSDVPRDLEVVAATPTSLLISWHNTYKDYRYYRITYGETGGNSPVQEFTVPHMAYNTATISGLKPGVDYTITVYAVTVTMQALLYSIPISINYRT
bucket C

Using the reported A450, which band applies to 679B09 (designed binder, 10Fn3-based clone expressed in E. coli as His6 tagged protein; not shown: His6 tag) VSDVPRDLEVVAATPTSLLISWMRWYAPRRYYRITYGETGGNSPVQEFTVPFWQGTATISGLKPGVDYTITVYAVTRGQSGLGMPISINYRT ?
bucket A

Class for 867A03 (designed binder, 10Fn3-based clone expressed in E. coli as His6 tagged protein; not shown: His6 tag) VSDVPRDLEVVAATPTSLLISWTYRHYPERYYRITYGETGGNSPVQEFTVPDPDSTATISGLKPGVDYTITVYAVTYNHSSTPISINYRT ?
bucket B

Which A450 band matches 867E05 (designed binder, 10Fn3-based clone expressed in E. coli as His6 tagged protein; not shown: His6 tag) VSDVPRDLEVVAATPTSLLISWNRHAMASRYYRITYGETGGNSPVQEFTVPDVPFTATISGLKPGVDYTITVYAVTMSDKAMDMRTPSIGPISINYRT ?
bucket B

Please classify: 679A05 (designed binder, 10Fn3-based clone expressed in E. coli as His6 tagged protein; not shown: His6 tag) VSDVPRDLEVVAATPTSLLISWARYAECGRYYRITYGETGGNSPVQEFTVPDVPWTATISGLKPGVDYTITVYAVTLGKPPLPGWVSGLDPISINYRT
bucket B

Class for 679B10 (designed binder, 10Fn3-based clone expressed in E. coli as His6 tagged protein; not shown: His6 tag) VSDVPRDLEVVAATPTSLLISWRLTAPLGRYYRITYGETGGNSPVQEFTVPDIPFTATISGLKPGVDYTITVYAVTLSDSAHGGLRDVPISINYRT ?
bucket B
